The origin of these recorded values is patent US20240360228A1.

- assay system: T1, human chemokine (C-C motif) receptor 8 (CCR8) (human, UniProt P51685 1-355)
- T1 construct: On human peripheral blood lymphocytes / PBMC (native) or on human CCR8 GFP-transfected Ba/F3 cells; also called hCCR8; human CCR8
- T1 sequence (P51685 whole entry): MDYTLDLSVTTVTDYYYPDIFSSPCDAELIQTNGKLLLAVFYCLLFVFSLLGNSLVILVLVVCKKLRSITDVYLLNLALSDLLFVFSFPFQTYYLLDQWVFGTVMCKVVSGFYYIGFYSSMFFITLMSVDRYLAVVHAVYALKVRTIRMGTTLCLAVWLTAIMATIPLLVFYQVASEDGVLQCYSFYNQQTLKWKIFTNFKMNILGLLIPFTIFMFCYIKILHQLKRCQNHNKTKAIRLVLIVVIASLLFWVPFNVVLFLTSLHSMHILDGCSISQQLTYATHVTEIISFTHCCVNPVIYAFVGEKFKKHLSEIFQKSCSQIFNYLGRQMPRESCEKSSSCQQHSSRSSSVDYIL
- protocol description: flow cytometry blocking, PBMC CCR8+ CD4+ cells; competitor PE-AB15 (its MFI is read)
# % Blocking values compiled below
# value in %; strip the unit string

Prompt: Consider the binder shown here: AB14 (antibody, V domains shown, Hybridoma monoclonal; also called antibody 14; clone 14) VH: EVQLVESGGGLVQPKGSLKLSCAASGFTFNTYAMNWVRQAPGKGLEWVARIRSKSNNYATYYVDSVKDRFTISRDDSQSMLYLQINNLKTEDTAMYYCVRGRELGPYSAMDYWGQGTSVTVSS VL: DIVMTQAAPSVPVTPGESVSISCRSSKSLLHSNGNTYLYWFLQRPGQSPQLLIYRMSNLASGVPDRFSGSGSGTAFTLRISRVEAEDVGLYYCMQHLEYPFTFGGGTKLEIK What is its recorded % Blocking?
Completion: -218

Prompt: Entry AB3 (antibody, V domains shown, Hybridoma monoclonal; also called antibody 3; clone 3) VH: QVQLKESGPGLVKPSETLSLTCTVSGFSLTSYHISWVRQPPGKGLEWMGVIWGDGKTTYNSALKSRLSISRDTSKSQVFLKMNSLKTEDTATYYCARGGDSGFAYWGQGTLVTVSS VL: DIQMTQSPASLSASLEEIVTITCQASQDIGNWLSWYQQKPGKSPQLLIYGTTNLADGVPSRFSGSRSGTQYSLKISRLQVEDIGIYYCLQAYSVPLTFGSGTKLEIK : reported % Blocking = ?
Completion: -10.2

We now examine a further binder.
Prompt: Reported % Blocking for AB13 (antibody, V domains shown, Hybridoma monoclonal; also called antibody 13; clone 13) VH: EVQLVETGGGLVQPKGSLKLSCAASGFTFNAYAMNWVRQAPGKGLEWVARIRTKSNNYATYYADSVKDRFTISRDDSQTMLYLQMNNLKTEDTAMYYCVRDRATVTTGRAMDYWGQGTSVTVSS VL: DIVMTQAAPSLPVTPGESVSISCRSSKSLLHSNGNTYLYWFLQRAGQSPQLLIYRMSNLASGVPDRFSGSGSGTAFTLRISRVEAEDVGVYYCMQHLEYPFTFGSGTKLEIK : what is it?
Completion: -15.9
